System: Micrococcus luteus DSM1790
ASSAY_DETAILS: Microdilution assay, MIC
Type: cell-based
APPLIED_CONDITIONS: DSM1790, 20 h, read-out: MIC M. luteus DSM1790

# MOLECULE, TARGET_UNDER_TEST, MIC
rows = [
    ("COc1c(NC(=O)c2ccc(NC(=O)c3ccc(NC(=O)C4(NC(=O)c5ccc(NC(=O)/C(C)=C/c6ccc(O)cc6)cc5)CCN(C)CC4)cc3)c(OC)c2O)ccc(C(=O)O)c1O", "Micrococcus luteus DSM1790", "≥ 8000 µg/mL"),
    ("C#CCOc1ccc(/C=C(\\C)C(=O)Nc2ccc(C(=O)NC(CC3(C)N=N3)C(=O)Nc3ccc(C(=O)Nc4ccc(C(=O)Nc5ccc(C(=O)O)c(O)c5OC)c(O)c4OC)cc3)cc2)cc1 (stereo not drawn)", "Micrococcus luteus DSM1790", "250 µg/mL"),
    ("COc1c(NC(=O)c2ccc(NC(=O)c3ccc(NC(=O)[C@H](Cc4cccnc4)NC(=O)c4ccc(NC(=O)/C(C)=C/c5ccc(O)cc5)cc4)cc3)c(OC)c2O)ccc(C(=O)O)c1O", "Micrococcus luteus DSM1790", "1000 µg/mL"),
    ("COc1c(NC(=O)c2ccc(NC(=O)c3ccc(NC(=O)[C@@H](Cc4c[nH]cn4)NC(=O)c4ccc(NC(=O)/C(C)=C/c5ccc(O)cc5)cc4)cc3)c(OC)c2O)ccc(C(=O)O)c1O", "Micrococcus luteus DSM1790", "8000 µg/mL"),
    ("COc1c(NC(=O)c2ccc(NC(=O)c3ccc(NC(=O)C(CN4CCOCC4)NC(=O)c4ccc(NC(=O)/C(C)=C/c5ccc(O)cc5)cc4)cc3)c(OC)c2O)ccc(C(=O)O)c1O (stereo not drawn)", "Micrococcus luteus DSM1790", "8000 µg/mL"),
    ("CCOc1c(NC(=O)c2ccc(NC(=O)c3ccc(NC(=O)[C@H](Cc4c[nH]nn4)NC(=O)c4ccc(NC(=O)/C(C)=C/c5ccc(O)cc5)cc4)cc3)c(OCC)c2O)ccc(C(=O)O)c1O", "Micrococcus luteus DSM1790", "500 µg/mL"),
    ("COc1c(NC(=O)c2ccc(NC(=O)c3ccc(NC(=O)[C@H](Cc4ccncc4)NC(=O)c4ccc(NC(=O)/C(C)=C/c5ccc(O)cc5)cc4)cc3)c(OC)c2O)ccc(C(=O)O)c1O", "Micrococcus luteus DSM1790", "8000 µg/mL"),
    ("COc1c(NC(=O)c2ccc(NC(=O)c3ccc(NC(=O)[C@H](Cc4ccccn4)NC(=O)c4ccc(NC(=O)/C(C)=C/c5ccc(O)cc5)cc4)cc3)c(OC)c2O)ccc(C(=O)O)c1O", "Micrococcus luteus DSM1790", "2000 µg/mL"),
    ("COc1c(NC(=O)c2ccc(NC(=O)c3ccc(NC(=O)[C@@H](CN(C)C)NC(=O)c4ccc(NC(=O)/C(C)=C/c5ccc(O)cc5)cc4)cc3)c(OC)c2O)ccc(C(=O)O)c1O", "Micrococcus luteus DSM1790", "≥ 8000 µg/mL"),
    ("COc1c(NC(=O)c2ccc(NC(=O)c3ccc(NC(=O)[C@H](CN(C)C)NC(=O)c4ccc(NC(=O)/C(C)=C/c5ccc(O)cc5)cc4)cc3)c(OC)c2O)ccc(C(=O)O)c1O", "Micrococcus luteus DSM1790", "2000 µg/mL"),
    ("COc1c(NC(=O)c2ccc(NC(=O)c3ccc(N(C)C(=O)[C@H](Cc4c[nH]nn4)NC(=O)c4ccc(NC(=O)/C(C)=C/c5ccc(O)cc5)cc4)cc3)c(OC)c2O)ccc(C(=O)O)c1O", "Micrococcus luteus DSM1790", "≥ 8000 µg/mL"),
    ("COc1c(NC(=O)c2ccc(NC(=O)c3ccc(NC(=O)[C@H](Cc4c[nH]nn4)NC(=O)c4ccc(NC(=O)/C(C)=C/c5ccc(O)cc5)cc4)c(OC)c3O)c(OC)c2O)ccc(C(=O)O)c1O", "Micrococcus luteus DSM1790", "≥ 8000 µg/mL"),
    ("COc1c(NC(=O)c2ccc(NC(=O)c3ccc(NC(=O)[C@H](CN(C)C)NC(=O)c4ccc(NC(=O)c5ccc(O)cc5)cc4)cc3)c(OC)c2O)ccc(C(=O)O)c1O", "Micrococcus luteus DSM1790", "≥ 8000 µg/mL"),
    ("COc1c(NC(=O)c2ccc(NC(=O)c3ccc(NC(=O)[C@H](Cc4cnn[nH]4)NC(=O)c4ccc(NC(=O)/C(C)=C/c5ccc(O)cc5)cc4)c(O)c3)c(OC)c2O)ccc(C(=O)O)c1O", "Micrococcus luteus DSM1790", "8000 µg/mL"),
    ("COc1c(NC(=O)c2ccc(NC(=O)c3ccc(NC(=O)[C@H](Cc4c[nH]cn4)NC(=O)c4ccc(NC(=O)/C(C)=C/c5ccc(O)cc5)cc4)cc3)c(OC)c2O)ccc(C(=O)O)c1O", "Micrococcus luteus DSM1790", "4000 µg/mL"),
]
